Data provenance: patent US7119221B2

- Tested on: primary rat hepatocytes
- ASSAY OVERVIEW: Inhibition of lipid synthesis ([1-14C]-acetate incorporation) in primary cultures of rat hepatocytes
- Assay type: cell-based
- MEASUREMENT PARAMETERS: Hepatocyte, 4 hour incubation with [1-14C]-acetate, 0-300 μM compound
READOUT KIND: log10 of IC50 (log10 of the value in µM)
log10 IC50, µM

Worked set:
CC(C)(CCCCC(O)CCCCC1(C(=O)O)CC1)C(=O)O (centres unmarked) [Compound E]    0.48
O=C(O)C1(CCCCC(O)CCCCC2(C(=O)O)CC2)CC1 [F]    0.26
O=C(O)C1(CCCCCC(O)CCCCCC2(C(=O)O)CC2)CC1 [B]    -0.05
CC(C)(CCCCCC(O)CCCCCC1(C(=O)O)CC1)C(=O)O (centres unmarked) [D]    0.15

Value (log10 of IC50, primary rat hepatocytes) for record CC(C)(CCCCC(O)CCCCC1(C(=O)O)CCC1)C(=O)O (centres unmarked) [A] = 1.08
